# target: LMPTP-A (Low Molecular Weight Protein Tyrosine Phosphatase-A) enzyme (Homo sapiens (Human), UniProt P24666)
# Sequence (P24666 whole entry): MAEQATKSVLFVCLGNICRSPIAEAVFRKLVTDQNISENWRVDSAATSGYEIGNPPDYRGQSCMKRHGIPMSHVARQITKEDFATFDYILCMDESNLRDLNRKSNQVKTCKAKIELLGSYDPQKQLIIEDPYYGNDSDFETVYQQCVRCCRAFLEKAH
# run_description: LMPTP primary screening / LMPTP (OMFP) enzyme inhibition assay, fluorescence intensity
# Assay type: biochemical
# measurement_conditions: S sample: compound synthesized de novo by SBCCG; read-out: LMPTP (OMFP) (IC50)
quantity_measured: IC50 (µM)
Numeric answer only, unit µM assumed.

### Prompt I would be grateful if you could share the reported IC50 for CSCCCN1CCCCC1 [Entry 64] .
### Response 66.9

* * *

# target: LMPTP-A (Low Molecular Weight Protein Tyrosine Phosphatase-A) enzyme (Homo sapiens (Human))
# run_description: LMPTP primary screening / LMPTP (OMFP) enzyme inhibition assay, fluorescence intensity
# Type: biochemical
# measurement_conditions: read-out: IC50
quantity_measured: IC50

### Prompt I would be grateful if you could share the reported IC50 for `CN(C)Cc1cccc(Nc2cc(-c3ccc(Cl)cc3F)nc3ccccc23)c1` .
### Response 801 to 5000 nM

### Prompt I would be grateful if you could share the reported IC50 for `CNC(=O)c1ccc(-c2cc(NCCCN3CCCCC3)c3ccccc3n2)cc1F` .
### Response 801 to 5000 nM

### Prompt I would be grateful if you could share the reported IC50 for `CCN(CC)CCNC(=O)c1ccc(-c2cc(NCCCN3CCCCC3)c3ccccc3n2)cc1` .
### Response 200 to 800 nM

All values here come from patent US11220486B2.
